Assign pH of supernatant (final pH) to each entry below.
test: Equilibrium solubility in pH buffers (3.0-8.0), 20% captisol and water; format: physicochemical; conditions: pH = 4.0 buffer (50 mM citrate), 24 hrs
Structures can show the parent of a compound that is named as a salt.
Please reply with the value in numeric form only.

pH of supernatant (final pH) reported for this molecule CC(=O)NCC1CCN(Cc2cc(Oc3ccc(N4CCN(CCC(=O)O)CC4)nc3)nc(-c3cc(Cl)cc(Cl)c3)c2)CC1 [Sulfate Type B] : 3.8

Looking up CC(=O)NCC1CCN(Cc2cc(Oc3ccc(N4CCN(CCC(=O)O)CC4)nc3)nc(-c3cc(Cl)cc(Cl)c3)c2)CC1 [Freeform Type A] , I found its pH of supernatant (final pH) recorded as 4.8

In plain terms, CC(=O)NCC1CCN(Cc2cc(Oc3ccc(N4CCN(CCC(=O)O)CC4)nc3)nc(-c3cc(Cl)cc(Cl)c3)c2)CC1 [Fumarate Type A] has a documented pH of supernatant (final pH) of 4.1

CC(=O)NCC1CCN(Cc2cc(Oc3ccc(N4CCN(CCC(=O)O)CC4)nc3)nc(-c3cc(Cl)cc(Cl)c3)c2)CC1 [HCl salt Type F] yielded pH of supernatant (final pH) of 3.9

---

Assay: Equilibrium solubility in pH buffers (3.0-8.0), 20% captisol and water
Format: physicochemical
Conditions: pH = 6.0 buffer (50 mM citrate), 24 hrs
Method: Additional solids were added into the sample to generate suspension if clear solution obtained. The suspension was equilibrated via stirring (1000 rpm). The suspension was centrifuged to obtain precipitate and supernatants. Solubility and pH were tested for the supernatants after filtration, and isolated precipitate was tested by XRPD. […]
Where a name gives a salt, the structure may show the parent alone.
Assay metric: pH of supernatant (final pH)

Lab book: pH of supernatant (final pH) of CC(=O)NCC1CCN(Cc2cc(Oc3ccc(N4CCN(CCC(=O)O)CC4)nc3)nc(-c3cc(Cl)cc(Cl)c3)c2)CC1 [Freeform Type A] noted as 6.1

Reported pH of supernatant (final pH) for CC(=O)NCC1CCN(Cc2cc(Oc3ccc(N4CCN(CCC(=O)O)CC4)nc3)nc(-c3cc(Cl)cc(Cl)c3)c2)CC1 [HCl salt Type F] was 5.8

Recorded pH of supernatant (final pH) (compound CC(=O)NCC1CCN(Cc2cc(Oc3ccc(N4CCN(CCC(=O)O)CC4)nc3)nc(-c3cc(Cl)cc(Cl)c3)c2)CC1 [Sulfate Type B] ): 4.3

Recorded result, CC(=O)NCC1CCN(Cc2cc(Oc3ccc(N4CCN(CCC(=O)O)CC4)nc3)nc(-c3cc(Cl)cc(Cl)c3)c2)CC1 [Fumarate Type A] , pH of supernatant (final pH): 5.1

---

assay: Equilibrium solubility in pH buffers (pH 4.0-6.0) with pH adjustment; type: physicochemical; conditions: pH = 6.0 buffer (50 mM phosphate), RT, with pH adjustment
Counter-ions that a name gives are not always drawn.
Could you please report measured S: solubility for the items listed next?
Please state the figure in µg/mL; there is no need to write the unit.

get_value(item= CC(=O)NCC1CCN(Cc2cc(Oc3ccc(N4CCN(CCC(=O)O)CC4)nc3)nc(-c3cc(Cl)cc(Cl)c3)c2)CC1 [Sulfate Type B] , readout=S: solubility) returns 60

The value of S: solubility measured for the compound CC(=O)NCC1CCN(Cc2cc(Oc3ccc(N4CCN(CCC(=O)O)CC4)nc3)nc(-c3cc(Cl)cc(Cl)c3)c2)CC1 [Fumarate Type A] turned out to be 90

Note to self: S: solubility recorded for CC(=O)NCC1CCN(Cc2cc(Oc3ccc(N4CCN(CCC(=O)O)CC4)nc3)nc(-c3cc(Cl)cc(Cl)c3)c2)CC1 [Freeform Type A] was 110

Reported S: solubility of CC(=O)NCC1CCN(Cc2cc(Oc3ccc(N4CCN(CCC(=O)O)CC4)nc3)nc(-c3cc(Cl)cc(Cl)c3)c2)CC1 [HCl salt Type F] : 430

---

experiment: Log D7.4 test, n-octanol/aqueous (pH=7.4) shake flask method; assay type: physicochemical; details: n-octanol/aqueous buffer (pH 7.4); n-octanol/aqueous pH 7.4, three runs; read-out: Average of LogD7.4
Assay metric: logD at 24 h
Answer with a number only.

Measured logD at 24 h, CC(=O)NCC1CCN(Cc2cc(Oc3ccc(N4CCN(CCC(=O)O)CC4)nc3)nc(-c3cc(Cl)cc(Cl)c3)c2)CC1 [Compound (I) freeform] : 2.23

---

test: Equilibrium solubility in pH buffers (pH 4.0-6.0) with pH adjustment; format: physicochemical; settings: pH = 5.0 buffer (50 mM citrate)
Where a name gives a salt, the structure may show the parent alone.
Field: pH (final, after adjustment where adjusted). Provide a value for each of the compounds that follow.
Lab note: record just the number, no unit beside it.

The recorded pH (final, after adjustment where adjusted) for entry CC(=O)NCC1CCN(Cc2cc(Oc3ccc(N4CCN(CCC(=O)O)CC4)nc3)nc(-c3cc(Cl)cc(Cl)c3)c2)CC1 [Freeform Type A] equals 5.2

Value of measured pH (final, after adjustment where adjusted) for the entry CC(=O)NCC1CCN(Cc2cc(Oc3ccc(N4CCN(CCC(=O)O)CC4)nc3)nc(-c3cc(Cl)cc(Cl)c3)c2)CC1 [HCl salt Type F] : 4.9

---

experiment: Solubility of freeform in acetone/H2O systems with various water activities; format: physicochemical; conditions: acetone/H2O (986:14), aw 0.2, organic solvent or mixture, thermodynamic from solid, Acetone/H2O (986:14), aw 0.2, RT
Assay metric: solubility at 2 days (µg/mL)
Response body: numeric value in µg/mL, unit text excluded.

GET /value?item= CC(=O)NCC1CCN(Cc2cc(Oc3ccc(N4CCN(CCC(=O)O)CC4)nc3)nc(-c3cc(Cl)cc(Cl)c3)c2)CC1 [Freeform Type B] &field=solubility at 2 days returns 3960

---

test: Solubility of freeform in acetone/H2O systems with various water activities; assay type: physicochemical; settings: acetone/H2O (605:395), aw 0.8, organic solvent or mixture, thermodynamic from solid, Acetone/H2O (605:395), aw 0.8, RT
Assay metric: solubility at 2 days

Lab note: measured solubility at 2 days of CC(=O)NCC1CCN(Cc2cc(Oc3ccc(N4CCN(CCC(=O)O)CC4)nc3)nc(-c3cc(Cl)cc(Cl)c3)c2)CC1 [Freeform Type A] was 10.3 mg/mL

---

experiment: Solubility profile of freeform Type D in citrate buffers; format: physicochemical; details: aqueous buffer, thermodynamic from solid; 100 mM citrate buffer, buffer pH 4.51, RT, 24 hours, end pH 5.03; read-out: Solubility
Assay metric: solubility at 24 h (mg/mL)
Kindly provide the numeric value in mg/mL only, without the unit symbol.

# solubility at 24 h of CC(=O)NCC1CCN(Cc2cc(Oc3ccc(N4CCN(CCC(=O)O)CC4)nc3)nc(-c3cc(Cl)cc(Cl)c3)c2)CC1 [Freeform Type D] = 21.2

---

assay: Solubility profile of freeform Type D in citrate buffers; format: physicochemical; details: aqueous buffer, thermodynamic from solid; 100 mM citrate buffer, buffer pH 3.60, RT, 24 hours, end pH 4.92; read-out: Solubility
Assay metric: solubility at 24 h (mg/mL)
The reply should contain only the number, in mg/mL.

# compound CC(=O)NCC1CCN(Cc2cc(Oc3ccc(N4CCN(CCC(=O)O)CC4)nc3)nc(-c3cc(Cl)cc(Cl)c3)c2)CC1 [Freeform Type D] ; its solubility at 24 h = 24.3

---

assay: Equilibrium solubility in pH buffers (pH 4.0-6.0) with pH adjustment; type: physicochemical; settings: pH = 4.0 buffer (50 mM citrate)
Structures can show the parent of a compound that is named as a salt. Marks after values point to notes of the source that are not given here.
Assay metric: pH (final, after adjustment where adjusted)

Form: compound = CC(=O)NCC1CCN(Cc2cc(Oc3ccc(N4CCN(CCC(=O)O)CC4)nc3)nc(-c3cc(Cl)cc(Cl)c3)c2)CC1 [Freeform Type A] ; pH (final, after adjustment where adjusted) = 4.2*

Form field pH (final, after adjustment where adjusted), entry CC(=O)NCC1CCN(Cc2cc(Oc3ccc(N4CCN(CCC(=O)O)CC4)nc3)nc(-c3cc(Cl)cc(Cl)c3)c2)CC1 [Sulfate Type B] : 3.9

The measured pH (final, after adjustment where adjusted) associated with CC(=O)NCC1CCN(Cc2cc(Oc3ccc(N4CCN(CCC(=O)O)CC4)nc3)nc(-c3cc(Cl)cc(Cl)c3)c2)CC1 [HCl salt Type F] reads 4.0

Recorded pH (final, after adjustment where adjusted) (compound CC(=O)NCC1CCN(Cc2cc(Oc3ccc(N4CCN(CCC(=O)O)CC4)nc3)nc(-c3cc(Cl)cc(Cl)c3)c2)CC1 [Fumarate Type A] ): 4.0

---

So I've got a bunch of molecules here, and I need their S: solubility values.
test: Equilibrium solubility in pH buffers (3.0-8.0), 20% captisol and water; format: physicochemical; conditions: pH = 3.0 buffer (50 mM HCl + KCl), RT, 24 hrs
Counter-ions that a name gives are not always drawn.

Lookup result for CC(=O)NCC1CCN(Cc2cc(Oc3ccc(N4CCN(CCC(=O)O)CC4)nc3)nc(-c3cc(Cl)cc(Cl)c3)c2)CC1 [HCl salt Type F] ; measured S: solubility: 2770 µg/mL

S: solubility reported for this molecule CC(=O)NCC1CCN(Cc2cc(Oc3ccc(N4CCN(CCC(=O)O)CC4)nc3)nc(-c3cc(Cl)cc(Cl)c3)c2)CC1 [Fumarate Type A] : 650 µg/mL

Quick note, S: solubility for CC(=O)NCC1CCN(Cc2cc(Oc3ccc(N4CCN(CCC(=O)O)CC4)nc3)nc(-c3cc(Cl)cc(Cl)c3)c2)CC1 [Freeform Type A] landed at 50 µg/mL

The measured S: solubility associated with CC(=O)NCC1CCN(Cc2cc(Oc3ccc(N4CCN(CCC(=O)O)CC4)nc3)nc(-c3cc(Cl)cc(Cl)c3)c2)CC1 [Sulfate Type B] reads 8000 µg/mL
